test system: MDR1-MDCK cell monolayers; assay: MDR1/MDCK permeability assay; format: in vitro ADME; details: A to B; Table 3
Exercise: for every item that follows, state its recorded MDCK Permeability (MDR1-MDCK); Mean; Papp(A-B) (10^−6 cm/s).

Quick check: MDCK Permeability (MDR1-MDCK); Mean; Papp(A-B) (10^−6 cm/s) of CC(C)(C)Cc1ccnc2c1C(C)(c1ccccc1)C1=C(CC(C)(C)CC1=O)N2 (single isomer, unassigned) [Compound 130A] ? 1.4 10^−6 cm/s

Quick check: MDCK Permeability (MDR1-MDCK); Mean; Papp(A-B) (10^−6 cm/s) of CC1(C)CC(=O)C2=C(C1)Nc1ncc(C(F)(F)F)cc1C2(C)c1ccccc1 (single isomer, unassigned) [Compound 128B] ? 20 10^−6 cm/s

Quick check: MDCK Permeability (MDR1-MDCK); Mean; Papp(A-B) (10^−6 cm/s) of CC(C)(C)Cc1cnc2c(c1)C(C)(c1ccccc1)C1=C(CC(C)(C)CC1=O)N2 (single isomer, unassigned) [Compound 129A] ? 2.1 10^−6 cm/s

Quick check: MDCK Permeability (MDR1-MDCK); Mean; Papp(A-B) (10^−6 cm/s) of CC(C)(C)Cc1cnc2c(c1)C(C)(c1ccccc1)C1=C(CC(C)(C)CC1=O)N2 (single isomer, unassigned) [Compound 129B] ? 1.8 10^−6 cm/s

Quick check: MDCK Permeability (MDR1-MDCK); Mean; Papp(A-B) (10^−6 cm/s) of CCC1(c2ccccc2)C2=C(CC(C)(C)CC2=O)Nc2ncc(F)cc21 (single isomer, unassigned) [Compound 114A] ? 23 10^−6 cm/s

Quick check: MDCK Permeability (MDR1-MDCK); Mean; Papp(A-B) (10^−6 cm/s) of CC1(C)CC(=O)C2=C(C1)Nc1ncc(F)cc1C2(C)c1ccccc1 (single isomer, unassigned) [Compound 107B] ? 30 10^−6 cm/s

Quick check: MDCK Permeability (MDR1-MDCK); Mean; Papp(A-B) (10^−6 cm/s) of CC(C)(C)Cc1cnccc1-c1cccc(C2(C)C3=C(CC(C)(C)CC3=O)Nc3ncc(F)cc32)c1 (single isomer, unassigned) [Compound 168A] ? 2.5 10^−6 cm/s

Quick check: MDCK Permeability (MDR1-MDCK); Mean; Papp(A-B) (10^−6 cm/s) of CC1(C)CC(=O)C2=C(C1)Nc1ncc(F)c(C#N)c1C2(C)c1ccccc1 (single isomer, unassigned) [Compound 121A] ? 22 10^−6 cm/s

Quick check: MDCK Permeability (MDR1-MDCK); Mean; Papp(A-B) (10^−6 cm/s) of CC1(C)CC(=O)C2=C(C1)Nc1nccc(C(F)(F)F)c1C2(C)c1ccccc1 (single isomer, unassigned) [Compound 127A] ? 17 10^−6 cm/s

Quick check: MDCK Permeability (MDR1-MDCK); Mean; Papp(A-B) (10^−6 cm/s) of CC(C)(C)Cc1ccnc2c1C(C)(c1ccccc1)C1=C(CC(C)(C)CC1=O)N2 (single isomer, unassigned) [Compound 130B] ? 1.3 10^−6 cm/s

Quick check: MDCK Permeability (MDR1-MDCK); Mean; Papp(A-B) (10^−6 cm/s) of CC1(C)CC(=O)C2=C(C1)Nc1nccc(C#N)c1C2(C)c1ccccc1 (single isomer, unassigned) [Compound 108A] ? 18 10^−6 cm/s

Quick check: MDCK Permeability (MDR1-MDCK); Mean; Papp(A-B) (10^−6 cm/s) of CCC1(c2ccccc2)C2=C(CC(C)(C)CC2=O)Nc2ncccc21 (single isomer, unassigned) [Compound 102A] ? 22 10^−6 cm/s

Quick check: MDCK Permeability (MDR1-MDCK); Mean; Papp(A-B) (10^−6 cm/s) of CC1(C)CC(=O)C2=C(C1)Nc1ncc(F)cc1C2(C)c1cccc(S(C)(=O)=O)c1 (single isomer, unassigned) [Compound 139A] ? 0.52 10^−6 cm/s
